target: UniProtKB Q15418; test: Inhibition of MAPKAP-K1a at 10 uM
Sequence (Q15418 whole entry): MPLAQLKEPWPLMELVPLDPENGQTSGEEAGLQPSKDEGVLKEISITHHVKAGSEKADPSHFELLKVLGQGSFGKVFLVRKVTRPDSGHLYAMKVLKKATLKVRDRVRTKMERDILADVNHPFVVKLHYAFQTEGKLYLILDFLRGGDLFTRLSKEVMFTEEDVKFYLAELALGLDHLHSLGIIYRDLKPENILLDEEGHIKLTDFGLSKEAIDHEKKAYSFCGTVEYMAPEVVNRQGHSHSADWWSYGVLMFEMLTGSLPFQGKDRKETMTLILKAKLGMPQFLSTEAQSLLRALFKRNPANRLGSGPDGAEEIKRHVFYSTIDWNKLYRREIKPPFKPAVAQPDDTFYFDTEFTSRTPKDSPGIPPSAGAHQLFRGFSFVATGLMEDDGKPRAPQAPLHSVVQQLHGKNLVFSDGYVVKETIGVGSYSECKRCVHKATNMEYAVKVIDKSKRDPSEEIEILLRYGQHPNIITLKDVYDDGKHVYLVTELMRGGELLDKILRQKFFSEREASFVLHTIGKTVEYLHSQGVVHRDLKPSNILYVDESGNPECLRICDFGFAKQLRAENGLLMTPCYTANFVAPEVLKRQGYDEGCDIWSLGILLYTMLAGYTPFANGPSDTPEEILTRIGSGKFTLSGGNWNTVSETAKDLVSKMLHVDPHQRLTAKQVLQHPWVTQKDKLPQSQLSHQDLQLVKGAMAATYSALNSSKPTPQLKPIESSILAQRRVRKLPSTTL
measurement.name: inhibition (%)

Cc1c(Nc2ccc(Br)cc2F)c(C(=O)NOCCO)cn(C)c1=O : -9

a: CCONC(=O)c1cn(C)c(=O)c(C)c1Nc1ccc(Br)cc1F
b: CCONC(=O)c1cn(C)c(=O)c(F)c1Nc1ccc(Br)cc1F
c: CONC(=O)c1cn(C)c(=O)c(C)c1Nc1ccc(Br)cc1F
Task field, ranking: reported inhibition, descending order. Answer with the labels in sequence, matching the requested order.
b, a, c
(b: 6%, a: 3%, c: -8%)

---

target: Ribosomal protein S6 kinase (P70S6K) (Homo sapiens) (UniProt Q9UBS0+P23443); test: Inhibition of p70 S6K at 10 uM; format: protein-complex assay
measurement.name: inhibition (%)

P: CONC(=O)c1cn(C)c(=O)c(C)c1Nc1ccc(Br)cc1F
Q: CCONC(=O)c1cn(C)c(=O)c(F)c1Nc1ccc(Br)cc1F
For the pair P and Q , which entry has the numerically smaller recorded inhibition? Select an item and report its label.
P

a: Cc1c(Nc2ccc(Br)cc2F)c(C(=O)NOCCO)cn(C)c1=O
b: CCONC(=O)c1cn(C)c(=O)c(C)c1Nc1ccc(Br)cc1F
Could you please tell me which of these two has the higher inhibition: a or b ? Select an item and report its label.
a
